experimentalTarget: FGFR3^V555M (Homo sapiens, UniProt P22607, V555M)
Construct: FGFR3 (residues 450–758); 6×His (PreScission-cleavable) (N, cleaved yes); made in house; host or cells: E. coli BL21 Rosetta
Sequence (P22607 450-758 V555M): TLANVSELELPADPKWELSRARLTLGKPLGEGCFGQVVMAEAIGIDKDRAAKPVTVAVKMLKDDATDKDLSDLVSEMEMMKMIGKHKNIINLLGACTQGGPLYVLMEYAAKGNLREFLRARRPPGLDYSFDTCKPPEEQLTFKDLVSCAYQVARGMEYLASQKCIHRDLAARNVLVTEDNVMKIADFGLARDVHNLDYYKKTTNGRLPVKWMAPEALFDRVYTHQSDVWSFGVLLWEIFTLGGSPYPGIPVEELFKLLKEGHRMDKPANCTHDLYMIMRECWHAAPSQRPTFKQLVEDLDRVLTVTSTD
assayExplanation: Kinase inhibition assay (ADP-Glo), FGFR3 V555M gatekeeper mutant
Assay type: biochemical
conditionSummary: ADP-Glo, read-out: Kinase inhibitory activity FGFR3^V555M IC50
readoutName: IC50

What IC50 value was documented for this compound, Cc1cc2cc(Oc3ccnc(Nc4cccc(CS(=O)(=O)NCCN(C)C)c4)n3)ccc2[nH]1 ?
> 5 µM

====

readoutName: IC50
Could you write the number and then its unit?

Param readout = IC50; param system = FGFR3 (Homo sapiens); param query = Cc1cc2cc(Oc3ccnc(Nc4cccc(CS(=O)(=O)NCCN(C)C)c4)n3)ccc2[nH]1 ; response: value
Sequence (P22607 450-758): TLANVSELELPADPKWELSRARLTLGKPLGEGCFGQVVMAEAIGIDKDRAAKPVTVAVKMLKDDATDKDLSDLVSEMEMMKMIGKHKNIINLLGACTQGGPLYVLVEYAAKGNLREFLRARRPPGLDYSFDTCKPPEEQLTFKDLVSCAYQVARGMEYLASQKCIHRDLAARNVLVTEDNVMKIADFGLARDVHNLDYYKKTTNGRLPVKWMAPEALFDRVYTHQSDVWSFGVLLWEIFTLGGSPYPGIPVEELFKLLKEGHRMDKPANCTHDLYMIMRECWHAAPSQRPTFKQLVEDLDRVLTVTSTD
28 nM
